Recorded LC retention time for the following compounds
Experiment: RP, Waters XBridge C18, 50 × 2.1 mm, 3.5 µm, 30 °C, 0.2 mL/min, estimated dead time 0.55 min; A: water + 0.1% formic acid, pH 3; B: methanol + 0.1% formic acid, pH 3; gradient (min/%B) 0/10 4/50 17/95 25/95 25.1/10 30/10
Conditions: stereoisomer not certain
State just the number; it will be interpreted in min.

Consider the following illustrative entries.
{"compound": "CC1=NNC(=O)N(N=Cc2cccnc2)C1 [Pymetrozine]", "LC retention time / min": 1.5}
{"compound": "CCOP(=S)(OCC)Oc1nc(Cl)c(Cl)cc1Cl [Chlorpyrifos]", "LC retention time / min": 16}
{"compound": "CCc1cc(C)cc(CC)c1-c1c(OC(=O)C(C)(C)C)n2n(c1=O)CCOCC2 [Pinoxaden]", "LC retention time / min": 13.7}
{"compound": "CC(C)N1C(=O)c2ccccc2NS1(=O)=O [Bentazone]", "LC retention time / min": 7.5}
{"compound": "CC(C)c1nc(N(C)S(C)(=O)=O)nc(-c2ccc(F)cc2)c1C=CC(O)CC(O)CC(=O)O (centres undefined) [Rosuvastatin]", "LC retention time / min": 9.2}

-- ask Identify measured LC retention time corresponding to CCc1cccc(CC)c1N(COC)C(=O)CS(=O)(=O)O [Alachlor ESA]
-- reply 7.7

-- ask Item Cc1c(NC=O)c(=O)n(-c2ccccc2)n1C [4-Formylaminoantipyrine] : provide LC retention time
-- reply 3.7

-- ask Name the recorded LC retention time of the compound listed here: CC1(C)CON(Cc2ccccc2Cl)C1=O [Clomazone]
-- reply 9.4

-- ask Give LC retention time for the following compound: Nc1ccc(S(=O)(=O)Nc2ncccn2)cc1 [Sulfadiazine]
-- reply 2.2
